Values from paper PMC6130714

system.name: α-Glucosidase
test.protocol: α-Glucosidase inhibitory activity (p-NPG substrate, 96-well plate)
Assay type: biochemical
measure.name: IC50 value (α-glucosidase) (µg/mL)

• O=c1ccc2ccc(O)cc2o1 = 9320

1. CC(C)(OC(=O)c1ccccc1)[C@@H]1Cc2cc3ccc(=O)oc3cc2O1
2. COc1ccc2ccc(=O)oc2c1CC=C(C)C
3. COc1c2ccoc2cc2oc(=O)ccc12
4. CC(C)=CC(=O)OC(C)(C)C1Cc2cc3ccc(=O)oc3cc2O1 (centres unmarked)
Q: Arrange the 4 molecules from largest to smallest IC50 value (α-glucosidase). List the labels in the requested order.
Result: 3, 4, 2, 1
(3: 6120 µg/mL, 4: 1860 µg/mL, 2: 950 µg/mL, 1: 420 µg/mL)

----------
Test system: α-Glucosidase
test.protocol: α-Glucosidase inhibitory activity (p-NPG substrate, 96-well plate)
Assay type: biochemical
condition: concentration 5000 µg/mL; mean of three replicates
measure.name: α-Glucosidase inhibition (%)

// solved cases for α-Glucosidase inhibition (%) follow
* CC(C)(OC(=O)c1ccccc1)[C@@H]1Cc2cc3ccc(=O)oc3cc2O1 | 94.57
* COc1ccc2ccc(=O)oc2c1CC=C(C)C | 93.31
* CC(C)=CCOc1c2occc2cc2ccc(=O)oc12 | 88.97

A. CC(C)(O)C(Cc1cc2ccc(=O)oc2cc1O)OC(=O)c1ccccc1 (centres unmarked) [Peucedanol-2'-benzoate, peucedanol-2′-benzoate]
B. COc1c2ccoc2cc2oc(=O)ccc12
Q: I need your help: which of the pair A , B has higher α-Glucosidase inhibition (%)? Write down the label attached to your selection.
Result: A
(A: 77.22%, B: 42.26%)

a. CC(C)=CC(=O)OC(Cc1cc2ccc(=O)oc2cc1O)C(C)(C)O (centres unmarked)
b. COc1cc2oc(=O)ccc2cc1CC=C(C)C
Q: From the items above, decide which of a and b has the lower α-Glucosidase inhibition (%) reading. Write down the label attached to your selection.
Result: a
(a: 12.30%, b: 87.95%)

----------
system.name: α-Glucosidase
test.protocol: α-Glucosidase inhibitory activity (p-NPG substrate, 96-well plate)
Type: biochemical
measure.name: IC50 value (α-glucosidase) (µg/mL)

* COc1c2occc2cc2ccc(=O)oc12 | 5380
* CC(C)=CCOc1c2occc2cc2ccc(=O)oc12 | 1230

I. COc1cc2oc(=O)ccc2cc1CC=C(C)C
II. CC(C)=CC(=O)OC(Cc1cc2ccc(=O)oc2cc1O)C(C)(C)O (stereo not shown)
Q: From the items above, decide which of I and II has the lower IC50 value (α-glucosidase) reading. Write down the label attached to your selection.
Result: I
(I: 890 µg/mL, II: 20010 µg/mL)

----------
Tested on: α-Glucosidase
test.protocol: α-Glucosidase inhibitory activity (p-NPG substrate, 96-well plate)
Assay type: biochemical
condition: concentration 2000 µg/mL; mean of three replicates
measure.name: α-Glucosidase inhibition (%)

// solved cases for α-Glucosidase inhibition (%) follow
• COc1cc2oc(=O)ccc2cc1CC=C(C)C = 81.58
• CC(C)(O)C(Cc1cc2ccc(=O)oc2cc1O)OC(=O)c1ccccc1 (stereo not shown) [Peucedanol-2'-benzoate, peucedanol-2′-benzoate] = 66.86
• C[C@H]1O[C@H](O[C@H]2[C@H](O)[C@@H](O)[C@@H](O[C@H]3[C@H](O)[C@@H](O)C(O)O[C@@H]3CO)O[C@@H]2CO)[C@H](O)[C@@H](O)[C@@H]1N[C@H]1C=C(CO)[C@@H](O)[C@H](O)[C@H]1O (stereo partly shown) [Acarbose, acarbose, reference compound] = 29.43
• CC(C)=CCOc1c2occc2cc2ccc(=O)oc12 = 63.07
• CC(C)(OC(=O)c1ccccc1)[C@@H]1Cc2cc3ccc(=O)oc3cc2O1 = 64.93

a. CC(C)=CC(=O)OC(C)(C)C1Cc2cc3ccc(=O)oc3cc2O1 (stereo not shown)
b. CC(C)=CC(=O)OC(Cc1cc2ccc(=O)oc2cc1O)C(C)(C)O (stereo not shown)
Q: I need your help: which of the pair a , b has higher α-Glucosidase inhibition (%)? Write down the label attached to your selection.
Result: a
(a: 51.95%, b: 7.84%)
